B1: GMCL1 (parent)
chain: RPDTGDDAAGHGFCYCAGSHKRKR

Variants of: B1
Method description: protein stability index of a GFP-peptide fusion (GPS, HEK-293T) (PSI 1-6); higher = more stable;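 also: lentivirally expressed fusions sorted by FACS into six bins by GFP to DsRed ratio, PSI derived from sequencing read proportions per bin multiplied by bin number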
Experimental conditions: c terminus: a fixed tail appended
We use 3 as the dividing line for protein stability index: on or above the line is true, below is false.

# check: protein stability index of A17E is greater than or equal to 3
true

# check: protein stability index of G18N is greater than or equal to 3
false

# check: protein stability index of R24F is greater than or equal to 3
true

# check: protein stability index of A17G is greater than or equal to 3
false

# check: protein stability index of C14F is greater than or equal to 3
true

# check: protein stability index of D3T is greater than or equal to 3
false

# check: protein stability index of Y15G is greater than or equal to 3
true

# check: protein stability index of D7N is greater than or equal to 3
true

# check: protein stability index of H11Q is greater than or equal to 3
true

# check: protein stability index of T4G is greater than or equal to 3
true
